For each of the compounds below, state its Specific Activity (intracellular Ca ion level-increasing activity).
- Test System: hOT7T175 (Homo sapiens, UniProt Q969F8, L364H)
- Sequence (Q969F8 whole entry L364H): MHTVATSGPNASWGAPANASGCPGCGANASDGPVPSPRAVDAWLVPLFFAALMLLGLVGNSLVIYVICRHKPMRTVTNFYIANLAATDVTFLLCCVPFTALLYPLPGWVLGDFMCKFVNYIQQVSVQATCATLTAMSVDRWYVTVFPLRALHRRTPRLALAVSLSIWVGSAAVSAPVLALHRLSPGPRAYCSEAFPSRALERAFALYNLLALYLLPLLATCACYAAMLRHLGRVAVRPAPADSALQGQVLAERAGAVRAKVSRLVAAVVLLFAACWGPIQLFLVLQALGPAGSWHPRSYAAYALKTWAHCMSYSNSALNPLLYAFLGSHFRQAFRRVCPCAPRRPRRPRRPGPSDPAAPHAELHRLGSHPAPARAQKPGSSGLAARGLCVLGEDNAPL
- Assay Notes: Intracellular Ca ion level-increasing activity using FLIPR in hOT7T175/CHO
- Format: cell-based
- Design: expressed in transfected cells; host or cells: CHO/dhfr- cells, obtained from ATCC
- Settings: relative, Metastin (1-54) = 1
Numbered stars: 1 amine (or outer) side, 2 acyl side, 3 side chain; on linkers, the order of the positions; unused ones are H or OH. Square brackets hold non-standard residues; d marks the D form. Peptide text beside a SMILES is read from it. * marks the point of attachment. Propanoyl(3-indol-3-yl) = O=C(CCc1c[nH]c2ccccc12)*; X8 = CNC(=N)NCC[C@H](N[*:1])C(=O)[*:2]; Arg(Me) = CNC(=N)NCCC[C@H](N)C(=O)O
Number only, no unit.

Inquiry: Quick one: Specific Activity (intracellular Ca ion level-increasing activity) for CC(C)C[C@H](NC(=O)CNC(=O)[C@H](Cc1ccccc1)NC(=O)[C@H](CO)NC(=O)[C@H](CC(N)=O)NC(=O)[C@H](Cc1c[nH]c2ccccc12)NC(=O)[C@@H](CC(N)=O)NC(=O)[C@@H](N)Cc1ccc(O)cc1)C(=O)N[C@@H](CCCNC(=N)N)C(=O)N[C@@H](Cc1ccccc1)C(N)=O [Compound No. 41] ?
Reply text: 10

Inquiry: Quick one: Specific Activity (intracellular Ca ion level-increasing activity) for CNC(=N)NCC[C@H](NC(=O)[C@H](CC(C)C)NC(=O)CNC(=O)[C@H](Cc1ccccc1)NC(=O)[C@H](CO)NC(=O)[C@H](CC(N)=O)NC(=O)[C@H](Cc1c[nH]c2ccccc12)NC(=O)[C@H](CC(N)=O)NC(=O)[C@@H](N)Cc1ccc(O)cc1)C(=O)N[C@@H](Cc1ccccc1)C(N)=O [Compound No. 311] (H-YNWNSFGL[X8]F-NH2) ?
Reply text: 1

Inquiry: Quick one: Specific Activity (intracellular Ca ion level-increasing activity) for CC(C)C[C@H](NC(=O)CNC(=O)[C@H](Cc1ccccc1)NC(=O)[C@H](CO)NC(=O)[C@H](CC(N)=O)NC(=O)[C@H](Cc1c[nH]c2ccccc12)NC(=O)[C@H](CC(N)=O)NC(=O)[C@@H](N)Cc1ccc(O)cc1)C(=O)N[C@@H](CCCNC(=N)N)C(=O)N[C@@H](Cc1c(F)c(F)c(F)c(F)c1F)C(N)=O [Compound No. 111] ?
Reply text: 3

Inquiry: Quick one: Specific Activity (intracellular Ca ion level-increasing activity) for CNC(=N)NCCC[C@H](NC(=O)[C@H](CC(C)C)NC(=O)CNC(=O)[C@H](Cc1ccccc1)NC(=O)[C@H](CO)NC(=O)[C@H](CC(N)=O)NC(=O)[C@H](CO)NC(=O)[C@H](CC(N)=O)NC(=O)[C@H](N)Cc1ccc(O)cc1)C(=O)N[C@@H](Cc1ccccc1)C(N)=O [Compound No. 170] (H-[dY]NSNSFGL[Arg(Me)]F-NH2; N-terminus assumed) ?
Reply text: 1

Inquiry: Quick one: Specific Activity (intracellular Ca ion level-increasing activity) for CC(C)C[C@H](NC(=O)CNC(=O)[C@H](Cc1ccccc1)NC(=O)[C@H](CO)NC(=O)[C@H](CC(N)=O)NC(=O)CCc1c[nH]c2ccccc12)C(=O)N[C@@H](CCCNC(=N)N)C(=O)N[C@@H](Cc1ccccc1)C(N)=O [Compound No. 114] ({Propanoyl(3-indol-3-yl)}-NSFGLRF-NH2) ?
Reply text: 3

Inquiry: Quick one: Specific Activity (intracellular Ca ion level-increasing activity) for CC(C)C[C@H](NC(=O)CNC(=O)[C@H](Cc1ccccc1)NC(=O)[C@H](CO)NC(=O)[C@H](CC(N)=O)NC(=O)[C@H](Cc1c[nH]c2ccccc12)NC(=O)[C@H](CC(N)=O)NC(=O)[C@@H](N)Cc1ccc(O)cc1)C(=O)N[C@@H](CCCNC(=N)N)C(=O)N[C@@H](Cc1ccc(O)cc1)C(N)=O [Compound No. 109] (H-YNWNSFGLRY-NH2) ?
Reply text: 20
